experiment.notes: Plasma pharmacokinetics after single i.v. dose
Type: in vivo, Sprague Dawley rats
experimental.parameters: Sprague-Dawley, iv, rat, single i.v. 10 mg/kg in DMSO, read-out: half life in plasma
quantity.name: half-life (h)
Response body: numeric value in h, unit text excluded.

Query: I'd like to know its half-life. The compound in question is O=C1Cc2c([nH]c3ccc([N+](=O)[O-])cc23)-c2ccccc2N1
Result: 1.1

----------
experiment.notes: Plasma pharmacokinetics after single i.v. dose
Format: in vivo, Sprague Dawley rats
experimental.parameters: Sprague-Dawley, iv, rat, single i.v. 5 mg/kg in DMSO, read-out: half life in the plasma
quantity.name: half-life (min)
Response body: numeric value in min, unit text excluded.

Query: I'd like to know its half-life. The compound in question is O=C1Cc2c([nH]c3ccc([N+](=O)[O-])cc23)-c2ccccc2N1
Result: 46

----------
experiment.notes: Plasma pharmacokinetics after single i.v. dose
Format: in vivo, Sprague Dawley rats
experimental.parameters: Sprague-Dawley, iv, rat, single i.v. 10 mg/kg in DMSO
quantity.name: clearance (L/h/kg)
Response body: numeric value in L/h/kg, unit text excluded.

Query: I'd like to know its clearance. The molecule in question is O=C1Cc2c([nH]c3ccc([N+](=O)[O-])cc23)-c2ccccc2N1
Result: 0.84

----------
experiment.notes: Plasma pharmacokinetics after single i.v. dose
Format: in vivo, Sprague Dawley rats
experimental.parameters: Sprague-Dawley, iv, rat, single i.v. 5 mg/kg in DMSO
quantity.name: clearance (mL/min/kg)
Response body: numeric value in mL/min/kg, unit text excluded.

Query: I'd like to know its clearance. The molecule in question is O=C1Cc2c([nH]c3ccc([N+](=O)[O-])cc23)-c2ccccc2N1
Result: 16
